# STUDY TARGET: T1, ScWpl1^259–647 (Wapl domain of Saccharomyces cerevisiae Wpl1), wild type (S. cerevisiae, UniProt Q99359 259-647)
# T1 sequence (looked up): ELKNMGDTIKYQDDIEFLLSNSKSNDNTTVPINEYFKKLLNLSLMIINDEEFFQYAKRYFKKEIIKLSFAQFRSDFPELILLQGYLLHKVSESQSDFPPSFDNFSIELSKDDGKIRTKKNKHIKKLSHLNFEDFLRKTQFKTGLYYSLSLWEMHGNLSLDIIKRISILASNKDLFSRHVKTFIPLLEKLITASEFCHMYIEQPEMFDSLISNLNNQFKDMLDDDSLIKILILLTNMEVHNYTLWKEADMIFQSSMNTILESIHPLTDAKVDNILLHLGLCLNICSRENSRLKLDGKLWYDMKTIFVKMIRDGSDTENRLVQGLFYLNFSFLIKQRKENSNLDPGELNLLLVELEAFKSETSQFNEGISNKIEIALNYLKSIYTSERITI
# PROTOCOL DETAILS: BLI

[
  {
    "BINDER": "GST-tagged ScSmc3^AH K112N K113N (domain or fragment, S. cerevisiae) MYIKRVIIKGFKTYRNETIIDNFSPHQNVIIGSNGSGKSNFFAAIRFVLSDDYSNLKREERQGLIHQGSGGSVMSASVEIVFHDPDHSMILPSGVLSRGDDEVTIRRTVGLNNDDYQLNDRNVTKGDIVRMLETAGFSMNNPYNIVPQGKIVALTNAKDKERLQLLEDVVGAKSFEVKLKASLKKMEETESGGSGGKVSENFEAVFERLVPRGTAKLIIHRKNDNANDHDESIDVDMDAESNESQNGKDSEIMYTGVSISVSFNSKQNEQLHVEQLSGGQKTVCAIALILAIQMVDPASFYLFDEIDAALDKQYRTAVATLLKELSKNAQFICTTFRTDMLQVADKFFRVKYENKISTVIEVNREEAIGFIRGSNKFAEV",
    "kon": "4880 M⁻¹ s⁻¹"
  }
]
